tested.on: T1, Chymase, from human skin (human, UniProt P23946 22-247)
T1 sequence (looked up): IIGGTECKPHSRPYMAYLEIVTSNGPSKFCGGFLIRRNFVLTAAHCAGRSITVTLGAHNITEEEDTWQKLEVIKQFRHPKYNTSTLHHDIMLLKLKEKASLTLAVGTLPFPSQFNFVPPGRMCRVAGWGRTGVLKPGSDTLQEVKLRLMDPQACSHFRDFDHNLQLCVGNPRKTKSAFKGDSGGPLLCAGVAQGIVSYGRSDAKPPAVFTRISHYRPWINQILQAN
experiment.notes: cell-based or functional assay
measurement.type: % inhibition at 100 µM (%)

[[record]]
binder = "ICTXSDPPICR (HELM PEPTIDE1{I.C.T.[Nle].S.D.P.P.I.C.R.[dP].P}$PEPTIDE1,PEPTIDE1,2:R3-10:R3|PEPTIDE1,PEPTIDE1,1:R1-13:R2$$$V2.0; SMILES CCCC[C@@H]1NC(=O)[C@H]([C@@H](C)O)NC(=O)[C@@H]2CSSC[C@H](NC(=O)[C@H]([C@@H](C)CC)NC(=O)[C@@H]3CCCN3C(=O)[C@@H]3CCCN3C(=O)[C@H](CC(=O)O)NC(=O)[C@H](CO)NC1=O)C(=O)N[C@@H](CCCNC(=N)N)C(=O)N1CCC[C@@H]1C(=O)N1CCC[C@H]1C(=O)N[C@@H]([C@@H](C)CC)C(=O)N2) [Example 59]"
value = 98.8

